Experiment: Stability in human plasma assessed as half life at 100 uM by LC-HRMS analysis
Format: ADME, cell-free
Entries annotated with measured half-life at 100 µM
attributeMeasured: half-life at 100 µM

structureNotation	endpointValue
CC(C)C[C@H](NC(=O)[C@@H](NC(=O)[C@H](Cc1ccc(O)cc1)NC(=O)[C@@H]1CCCN1C(=O)[C@H](CCCNC(=N)N)NC(=O)[C@@H](N)CCCNC(=N)N)C(C)(C)C)C(=O)O.O=C(O)C(F)(F)F.O=C(O)C(F)(F)F.O=C(O)C(F)(F)F	< 0.0833 h
CC(C)C[C@H](NC(=O)[C@@H](NC(=O)[C@H](Cc1ccc(O)cc1)NC(=O)[C@@H]1CCCN1C(=O)[C@H](CCCNC(=N)N)N(C)C(=O)[C@@H](N)CCCNC(=N)N)C(C)(C)C)C(=O)O.O=C(O)C(F)(F)F.O=C(O)C(F)(F)F.O=C(O)C(F)(F)F	> 48 h
CC[C@H](C)[C@H](NC(=O)[C@H](Cc1ccc(O)cc1)NC(=O)[C@@H]1CCCN1C(=O)[C@H](CCCNC(=N)N)NC(=O)[C@H](CCCNC(=N)N)NC)C(=O)N[C@@H](CC(C)C)C(=O)O.O=C(O)C(F)(F)F.O=C(O)C(F)(F)F.O=C(O)C(F)(F)F	< 5 h
CCC(=O)N[C@@H](CCCNC(=N)N)C(=O)N[C@@H](CCCNC(=N)N)C(=O)N1CCC[C@H]1C(=O)N[C@@H](Cc1ccc(O)cc1)C(=O)N[C@H](C(=O)N[C@@H](CC(C)C)C(=O)O)[C@@H](C)CC.O=C(O)C(F)(F)F.O=C(O)C(F)(F)F	1 to 2 h
CC[C@H](C)[C@H](NC(=O)[C@H](Cc1ccc(O)cc1)NC(=O)[C@@H]1CCCN1C(=O)[C@H](CCCNC(=N)N)NC(=O)[C@@H](N)CCCNC(=N)N)C(=O)N[C@@H](CC(C)C)C(=O)O	< 0.0833 h
CN[C@@H](CCCNC(=N)N)C(=O)N[C@@H](CCCNC(=N)N)C(=O)N1CCC[C@H]1C(=O)N[C@@H](Cc1ccc(O)cc1)C(=O)N[C@H](C(=O)N[C@@H](CC(C)C)C(=O)O)C(C)(C)C.O=C(O)C(F)(F)F.O=C(O)C(F)(F)F.O=C(O)C(F)(F)F	> 48 h

====

Entries annotated with measured remaining at 10 min, 100 µM
Assay: Stability in human plasma assessed as percentage intact peptide at 100 uM incubated for 10 mins by LC-HRMS analysis
Format: ADME, cell-free
Settings: read-out: Stability

structureNotation	inequalitySymbol	remaining at 10 min, 100 µM / %
CC[C@H](C)[C@@H](C(=O)N[C@@H](CC(C)C)C(=O)O)N(C)C(=O)[C@H](Cc1ccc(O)cc1)NC(=O)[C@@H]1CCCN1C(=O)[C@H](CCCNC(=N)N)NC(=O)[C@@H](N)CCCNC(=N)N	=	2.6
CC[C@H](C)[C@H](NC(=O)[C@H](Cc1ccc(O)cc1)N(C)C(=O)[C@@H]1CCCN1C(=O)[C@H](CCCNC(=N)N)NC(=O)[C@@H](N)CCCNC(=N)N)C(=O)N[C@@H](CC(C)C)C(=O)O	=	22.9
CCC(=O)N[C@@H](CCCNC(=N)N)C(=O)N[C@@H](CCCNC(=N)N)C(=O)N1CCC[C@H]1C(=O)N[C@@H](Cc1ccc(O)cc1)C(=O)N[C@H](C(=O)N[C@@H](CC(C)C)C(=O)O)[C@@H](C)CC.O=C(O)C(F)(F)F.O=C(O)C(F)(F)F	>	99

====

Target: UniProt:P30989
Sequence (P30989 whole entry): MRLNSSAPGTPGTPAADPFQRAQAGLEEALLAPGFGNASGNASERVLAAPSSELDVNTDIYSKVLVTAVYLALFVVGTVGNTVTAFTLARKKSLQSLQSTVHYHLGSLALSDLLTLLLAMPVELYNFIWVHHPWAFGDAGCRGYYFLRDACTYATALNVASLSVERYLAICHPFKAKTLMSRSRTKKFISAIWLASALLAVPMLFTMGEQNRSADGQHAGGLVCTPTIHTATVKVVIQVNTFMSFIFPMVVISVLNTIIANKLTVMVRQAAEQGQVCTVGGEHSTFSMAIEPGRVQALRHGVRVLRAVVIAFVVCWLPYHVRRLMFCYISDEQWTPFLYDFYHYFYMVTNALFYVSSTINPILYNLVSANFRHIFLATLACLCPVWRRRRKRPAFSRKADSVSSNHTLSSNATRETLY
Assay: Displacement of [3H]UR-MK300 from human NSTR1 in HT-29 cells incubated for 2 hrs by liquid scintillation counter

structureNotation	Ki (nM)
CC[C@H](C)[C@H](NC(=O)[C@H](Cc1ccc(O)cc1)NC(=O)[C@@H]1CCCN1C(=O)[C@H](CCCNC(=N)N)NC(=O)[C@H](CCCNC(=N)N)NC)C(=O)N[C@@H](CC(C)C)C(=O)O.O=C(O)C(F)(F)F.O=C(O)C(F)(F)F.O=C(O)C(F)(F)F	0.223
CCC(=O)N[C@@H](CCCNC(=N)N)C(=O)N[C@@H](CCCNC(=N)N)C(=O)N1CCC[C@H]1C(=O)N[C@@H](Cc1ccc(O)cc1)C(=O)N[C@H](C(=O)N[C@@H](CC(C)C)C(=O)O)C(C)(C)C	18
CN[C@@H](CCCNC(=N)N)C(=O)N[C@@H](CCCNC(=N)N)C(=O)N1CCC[C@H]1C(=O)N[C@@H](Cc1ccc(O)cc1)C(=O)N[C@H](C(=O)N[C@@H](CC(C)C)C(=O)O)C(C)(C)C.O=C(O)C(F)(F)F.O=C(O)C(F)(F)F.O=C(O)C(F)(F)F	0.88
CC(C)C[C@H](NC(=O)[C@@H](NC(=O)[C@H](Cc1ccc(O)cc1)NC(=O)[C@@H]1CCCN1C(=O)[C@H](CCCNC(=N)N)N(C)C(=O)[C@@H](N)CCCNC(=N)N)C(C)(C)C)C(=O)O.O=C(O)C(F)(F)F.O=C(O)C(F)(F)F.O=C(O)C(F)(F)F	1.6

====

Test: Stability in human plasma assessed as percentage intact peptide at 100 uM incubated for 30 mins by LC-HRMS analysis
Type: ADME, cell-free
Conditions: read-out: Stability
Entries annotated with measured remaining at 0.5 h, 100 µM
attributeMeasured: remaining at 0.5 h, 100 µM (%)

structureNotation	endpointUnit	inequalitySymbol	endpointValue
CC[C@H](C)[C@H](NC(=O)[C@H](Cc1ccc(O)cc1)N(C)C(=O)[C@@H]1CCCN1C(=O)[C@H](CCCNC(=N)N)NC(=O)[C@@H](N)CCCNC(=N)N)C(=O)N[C@@H](CC(C)C)C(=O)O	%	<	1
CCC(=O)N[C@@H](CCCNC(=N)N)C(=O)N[C@@H](CCCNC(=N)N)C(=O)N1CCC[C@H]1C(=O)N[C@@H](Cc1ccc(O)cc1)C(=O)N[C@H](C(=O)N[C@@H](CC(C)C)C(=O)O)[C@@H](C)CC.O=C(O)C(F)(F)F.O=C(O)C(F)(F)F	%	=	84
CC[C@H](C)[C@H](NC(=O)[C@H](Cc1ccc(O)cc1)NC(=O)[C@@H]1CCCN1C(=O)[C@H](CCCNC(=N)N)N(C)C(=O)[C@@H](N)CCCNC(=N)N)C(=O)N[C@@H](CC(C)C)C(=O)O	%	=	93.6
CC[C@H](C)[C@@H](C(=O)N[C@@H](CC(C)C)C(=O)O)N(C)C(=O)[C@H](Cc1ccc(O)cc1)NC(=O)[C@@H]1CCCN1C(=O)[C@H](CCCNC(=N)N)NC(=O)[C@@H](N)CCCNC(=N)N	%	<	1
CC[C@H](C)[C@H](NC(=O)[C@H](Cc1ccc(O)cc1)NC(=O)[C@@H]1CCCN1C(=O)[C@H](CCCNC(=N)N)NC(=O)[C@@H](N)CCCNC(=N)N)C(=O)N(C)[C@@H](CC(C)C)C(=O)O	%	<	1
CC[C@H](C)[C@H](NC(=O)[C@H](Cc1ccc(O)cc1)NC(=O)[C@@H]1CCCN1C(=O)[C@H](CCCNC(=N)N)NC(=O)[C@H](CCCNC(=N)N)NC)C(=O)N[C@@H](CC(C)C)C(=O)O.O=C(O)C(F)(F)F.O=C(O)C(F)(F)F.O=C(O)C(F)(F)F	%	=	88.2

====

Entries annotated with measured remaining at 1 h, 100 µM
Assay: Stability in human plasma assessed as percentage intact peptide at 100 uM incubated for 1 hr by LC-HRMS analysis
Assay type: ADME, cell-free
Conditions: read-out: Stability

structureNotation	inequalitySymbol	remaining at 1 h, 100 µM / %
CC[C@H](C)[C@H](NC(=O)[C@H](Cc1ccc(O)cc1)NC(=O)[C@@H]1CCCN1C(=O)[C@H](CCCNC(=N)N)N(C)C(=O)[C@@H](N)CCCNC(=N)N)C(=O)N[C@@H](CC(C)C)C(=O)O	=	83.7
CC[C@H](C)[C@H](NC(=O)[C@H](Cc1ccc(O)cc1)NC(=O)[C@@H]1CCCN1C(=O)[C@H](CCCNC(=N)N)NC(=O)[C@H](CCCNC(=N)N)NC)C(=O)N[C@@H](CC(C)C)C(=O)O.O=C(O)C(F)(F)F.O=C(O)C(F)(F)F.O=C(O)C(F)(F)F	=	79.7
CC[C@H](C)[C@H](NC(=O)[C@H](Cc1ccc(O)cc1)NC(=O)[C@@H]1CCCN1C(=O)[C@H](CCCNC(=N)N)NC(=O)[C@@H](N)CCCNC(=N)N)C(=O)N[C@@H](CC(C)C)C(=O)O	<	1
CC[C@H](C)[C@H](NC(=O)[C@H](Cc1ccc(O)cc1)NC(=O)[C@@H]1CCCN1C(=O)[C@H](CCCNC(=N)N)NC(=O)[C@@H](N)CCCNC(=N)N)C(=O)N(C)[C@@H](CC(C)C)C(=O)O	<	1
CC(C)C[C@H](NC(=O)[C@@H](NC(=O)[C@H](Cc1ccc(O)cc1)NC(=O)[C@@H]1CCCN1C(=O)[C@H](CCCNC(=N)N)NC(=O)[C@@H](N)CCCNC(=N)N)C(C)(C)C)C(=O)O.O=C(O)C(F)(F)F.O=C(O)C(F)(F)F.O=C(O)C(F)(F)F	<	1
CCC(=O)N[C@@H](CCCNC(=N)N)C(=O)N[C@@H](CCCNC(=N)N)C(=O)N1CCC[C@H]1C(=O)N[C@@H](Cc1ccc(O)cc1)C(=O)N[C@H](C(=O)N[C@@H](CC(C)C)C(=O)O)[C@@H](C)CC.O=C(O)C(F)(F)F.O=C(O)C(F)(F)F	=	71.8
CCC(=O)N[C@@H](CCCNC(=N)N)C(=O)N[C@@H](CCCNC(=N)N)C(=O)N1CCC[C@H]1C(=O)N[C@@H](Cc1ccc(O)cc1)C(=O)N[C@H](C(=O)N[C@@H](CC(C)C)C(=O)O)C(C)(C)C	>	99

Cited source: ChEMBL document CHEMBL4304768
